- Tested on: Candida albicans
- Details: Concentration 32 ug.mL-1; ASSAY_TEST Inhibition of Fungal Growth; detection method Absorption (OD530)
- Description: Antifungal activity against Candida albicans ATCC 90028 (CO-ADD:FG_001); MIC in YNB media using NBS plates, by OD630
Measured potencies and affinities stand elsewhere.
Inhibition less than 2% is t; Inhibition greater than or equal to 2% is f.

{"columns": ["Record smiles", "Classification"],
 "data": [
  ["COc1ccc(NC(=O)Cn2nc3c(SCc4ccc(Cl)cc4)nccn3c2=O)cc1OC", "f"],
  ["O=C(Cn1nc2ccc(SCc3ccc(Cl)cc3)nn2c1=O)Nc1ccc2c(c1)OCO2", "f"],
  ["COc1ccc(NC(=O)Cn2nc3c4cc(-c5ccc(C)c(C)c5)nn4ccn3c2=O)cc1OC", "t"]
]}
